# protocol: chemical genetic growth profiling, strain panel (AID 1159580);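 note: tested at 20 µM; growth read once vehicle control cultures reached saturation at 30 °C; 1 = growth at the plate median or of vehicle wells; lower values mean less growth of the strain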
# conditions: S. cerevisiae deletion strains, growth OD, locus YDL035C, strain GPR1, active compounds read low
Screen size: about 5,500 compounds; about 2,000 (36%) were called active. Roughly 18% stayed inconclusive and do not appear here. This is one part of the list.
Could you please mark MET for values of normalized growth below 1 and NOT MET for values at or above it?

molecule	qualitative-label
Cc1cc(N)c2ccccc2[n+]1CCCCCCCCCC[n+]1c(C)cc(N)c2ccccc21	MET
O=c1c(O)cc([C@H]2Oc3cc(O)cc(O)c3C[C@H]2O)cc2c([C@H]3Oc4cc(O)cc(O)c4C[C@H]3O)cc(O)c(O)c12	NOT MET

Now look at this entry.
Please determine if O=c1c(O)cccc2c(C3Oc4cc(O)cc(O)c4CC3O)cc(O)c(O)c12 (stereo not given) is below 1 in terms of normalized growth.
MET

====

# protocol: chemical genetic growth profiling, strain panel (AID 1159580);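 note: tested at 20 µM; growth read once vehicle control cultures reached saturation at 30 °C; 1 = growth at the plate median or of vehicle wells; lower values mean less growth of the strain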
# conditions: S. cerevisiae deletion strains, growth OD, locus YOL078W, strain AVO1, active compounds read low
Screen size: about 5,500 compounds; about 2,000 (36%) were called active. Inconclusive results (about 18%) are left out. Some of the results follow.
Recorded normalized growth for the following compounds
Lab note: write the figure by itself, no unit.

Here are 8 compounds together with their reported answers.
>>> print(df.to_string())
                                   compound  observed_result
0   CC(C)(C)NC(=S)N/N=C\c1cc(Br)c(O)c(Br)c1            0.961
1  N#Cc1nccnc1N1CCN(C(=O)Nc2cc(Cl)cc(Cl)c2)CC1            0.961
2  CC1(C)C=Cc2cc(/C(N)=N\OC(=O)Nc3cccc(C(F)(F)F)c3)ccc2O1            0.976
3  N/C(=N/OC(=O)c1cnn(-c2ccc([N+](=O)[O-])cc2)c1C(F)(F)F)c1ccc(Cl)cc1            0.969
4  N#Cc1ccc2[nH]cc(CCN(Cc3ccccc3)Cc3ccccc3)c2c1            0.987
5  N#C/C(N=Cc1cc(Cl)cc(Cl)c1O)=C(\C#N)N=Cc1cc(Cl)cc(Cl)c1O            0.928
6  CO/N=C1/CC(C)(C)Cc2c(-c3ccn(C(=O)Nc4cccc(Cl)c4)n3)sc(SC)c21            0.966
7  FC(F)(F)Oc1ccc(OCc2n[nH]c(=S)n2-c2ccc(Cl)cc2)cc1            0.986

# input compound: O=C(Nc1ccccc1C(=O)O)OCC1c2ccccc2-c2ccccc21 ; wanted: its normalized growth
0.977

# input compound: N/C(=N/OC(=O)Nc1cccc(C(F)(F)F)c1)c1ccc(OC(F)(F)F)cc1 ; wanted: its normalized growth
0.983

# input compound: O=S(=O)(Nc1ccccc1Sc1c(Cl)cncc1Cl)c1ccc(Cl)cc1 ; wanted: its normalized growth
0.96

# input compound: CCn1nc(C)cc1C(=O)Sc1cccc(Br)c1 ; wanted: its normalized growth
0.91

# input compound: O=C(NC(=S)NNc1ncc(C(F)(F)F)cc1Cl)c1cccs1 ; wanted: its normalized growth
0.585

# input compound: CCCCCCCCCCCCSc1ncn[nH]1 ; wanted: its normalized growth
0.973

Provenance of the data: PubChem BioAssay AID1159580
